// provenance: the kinase profiling compilation of Christmann-Franck et al. (2016)

molecular target: MINK1 (human) (UniProt Q8N4C8); test: KINOMEscan competition binding; details: compound 10.0 µM
Sequence (Q8N4C8 whole entry, looked up): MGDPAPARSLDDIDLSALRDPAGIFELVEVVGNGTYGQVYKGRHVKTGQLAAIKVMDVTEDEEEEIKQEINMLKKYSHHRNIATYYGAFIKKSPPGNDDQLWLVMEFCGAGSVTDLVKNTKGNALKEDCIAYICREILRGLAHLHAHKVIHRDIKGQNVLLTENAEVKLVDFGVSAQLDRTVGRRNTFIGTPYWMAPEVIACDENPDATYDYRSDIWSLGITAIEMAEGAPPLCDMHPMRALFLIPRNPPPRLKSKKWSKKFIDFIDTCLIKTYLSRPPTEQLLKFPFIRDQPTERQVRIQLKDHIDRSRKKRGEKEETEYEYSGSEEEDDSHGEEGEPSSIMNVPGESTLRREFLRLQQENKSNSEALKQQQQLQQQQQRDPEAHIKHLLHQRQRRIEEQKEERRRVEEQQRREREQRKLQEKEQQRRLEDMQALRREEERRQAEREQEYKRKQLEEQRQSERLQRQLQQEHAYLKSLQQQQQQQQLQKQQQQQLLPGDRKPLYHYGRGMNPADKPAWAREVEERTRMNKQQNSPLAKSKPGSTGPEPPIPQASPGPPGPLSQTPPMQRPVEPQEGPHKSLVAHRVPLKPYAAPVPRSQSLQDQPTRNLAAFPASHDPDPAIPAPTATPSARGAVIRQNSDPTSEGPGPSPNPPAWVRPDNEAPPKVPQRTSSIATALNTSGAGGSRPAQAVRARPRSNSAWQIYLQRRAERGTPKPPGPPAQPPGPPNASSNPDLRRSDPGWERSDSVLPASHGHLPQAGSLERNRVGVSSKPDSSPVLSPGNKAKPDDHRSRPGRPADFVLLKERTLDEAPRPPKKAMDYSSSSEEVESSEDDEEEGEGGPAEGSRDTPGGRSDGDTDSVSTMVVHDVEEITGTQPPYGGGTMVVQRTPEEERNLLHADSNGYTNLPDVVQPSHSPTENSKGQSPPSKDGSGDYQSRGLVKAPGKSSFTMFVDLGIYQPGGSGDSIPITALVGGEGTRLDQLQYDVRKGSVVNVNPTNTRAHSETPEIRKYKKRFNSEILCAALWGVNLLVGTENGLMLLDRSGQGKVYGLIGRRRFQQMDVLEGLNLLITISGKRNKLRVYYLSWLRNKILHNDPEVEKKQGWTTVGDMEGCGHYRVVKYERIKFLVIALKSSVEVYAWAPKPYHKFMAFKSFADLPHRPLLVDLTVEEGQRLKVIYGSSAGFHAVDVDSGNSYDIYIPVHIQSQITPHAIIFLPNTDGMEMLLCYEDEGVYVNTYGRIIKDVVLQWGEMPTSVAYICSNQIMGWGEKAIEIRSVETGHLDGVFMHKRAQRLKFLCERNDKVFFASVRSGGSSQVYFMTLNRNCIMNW
assayMetric: kinase still bound, per cent of control (%)
Record the value in %, omitting the unit from your answer.

mol: CC(=O)c1c(C)c2cnc(Nc3ccc(N4CCNCC4)cn3)nc2n(C2CCCC2)c1=O
kinase still bound, per cent of control, %: 7.6
--
mol: N#C/C(=C1/Nc2ccccc2S1)c1ccnc(NCCc2cccnc2)n1
kinase still bound, per cent of control, %: 45
--
mol: CCc1nc(-c2cccc(C)c2)c(-c2ccnc(NC(=O)c3ccccc3)c2)s1
kinase still bound, per cent of control, %: 8.4

## Task If you can, please state the reported kinase still bound, per cent of control value of CCN1CCN(Cc2ccc(NC(=O)c3ccc(C)c(/C=C/c4cnc5[nH]ccc5c4OC)c3)cc2C(F)(F)F)CC1 .
## Result 2.8

## Task Suppose we examine the compound COc1cc(N2CCC(C(N)=O)CC2)ccc1Nc1nc(N)c(Cl)c(Nc2ccccc2S(=O)(=O)C(C)C)n1 ; what kinase still bound, per cent of control value has been reported?
## Result 100
